biological target: HLA-A*32:01; test: IEDB peptide-MHC binding, purified MHC/competitive/radioactivity; filed as Kd, often an IC50 or EC50 that approximates it; bounds were set here for any values at or beyond the usual limits of such assays; conditions: source organism: Vaccinia virus
pKd: −log10 of the molar value.

>  <RECORD SEQUENCE>
DIMALIVSI

>  <pKd>
6.94

$$$$

* * *

target: HLA-B*45:06; experiment: IEDB peptide-MHC binding, purified MHC/competitive/fluorescence; filed as Kd, often an IC50 or EC50 that approximates it; bounds were set here for any values at or beyond the usual limits of such assays; conditions: source organism: Escherichia coli

>  <RECORD SEQUENCE>
MERFSWHVA

>  <Kd [µM]>
4.81

$$$$

* * *

biological target: HLA-A*30:02; assay: IEDB peptide-MHC binding, purified MHC/competitive/radioactivity; filed as Kd, often an IC50 or EC50 that approximates it; bounds were set here for any values at or beyond the usual limits of such assays; details: source organism: Dengue virus 2 Jamaica/1409/1983

>  <RECORD SEQUENCE>
TMKHKKATY

>  <TARGET OR TEST SYSTEM>
HLA-A*30:02

>  <Kd>
1200 nM

$$$$
>  <RECORD SEQUENCE>
YSQIGAGVY

>  <TARGET OR TEST SYSTEM>
HLA-A*30:02

>  <Kd>
2.03 nM

$$$$
>  <RECORD SEQUENCE>
RSNAALGAIF

>  <TARGET OR TEST SYSTEM>
HLA-A*30:02

>  <Kd>
3420 nM

$$$$
>  <RECORD SEQUENCE>
KQPATLRKY

>  <TARGET OR TEST SYSTEM>
HLA-A*30:02

>  <Kd>
416 nM

$$$$

* * *

target: HLA-A*23:01; experiment: IEDB peptide-MHC binding, purified MHC/direct/fluorescence; filed as Kd, often an IC50 or EC50 that approximates it; bounds were set here for any values at or beyond the usual limits of such assays; conditions: source organism: Brucella melitensis bv. 1 str. 16M

>  <RECORD SEQUENCE>
TTRAVNMEV

>  <Kd>
≥ 20 µM

$$$$

* * *

molecular target: HLA-B*07:02; test: IEDB peptide-MHC binding, purified MHC/competitive/fluorescence; bounds were set here for any values at or beyond the usual limits of such assays; conditions: source organism: Tarsius lariang
ENDPOINT: IC50

>  <RECORD SEQUENCE>
TEAEKWPFF

>  <TARGET OR TEST SYSTEM>
HLA-B*07:02

>  <RESULT>
≥ 20 µM

$$$$

* * *

biological target: HLA-A*01:01; experiment: IEDB peptide-MHC binding, purified MHC/direct/fluorescence; filed as Kd, often an IC50 or EC50 that approximates it; bounds were set here for any values at or beyond the usual limits of such assays; conditions: source organism: Human betaherpesvirus 6B
pKd: −log10 of the molar value.
ENDPOINT: pKd

>  <RECORD SEQUENCE>
ICDDVLSKY

>  <TARGET OR TEST SYSTEM>
HLA-A*01:01

>  <ENDPOINT>
pKd

>  <QUANTITATIVE RESULT>
5.50

$$$$

* * *

pIC50 values, listed per item
target: HLA-A*02:01; assay: IEDB peptide-MHC binding, purified MHC/competitive/fluorescence; bounds were set here for any values at or beyond the usual limits of such assays; details: source organism: Vaccinia virus
pIC50: −log10 of the molar value.
ENDPOINT: pIC50

>  <RECORD SEQUENCE>
TRAADEPPL

>  <CENSORING SIGN>
≤

>  <QUANTITATIVE RESULT>
2.85

$$$$
>  <RECORD SEQUENCE>
LLLQKYPPP

>  <CENSORING SIGN>
=

>  <QUANTITATIVE RESULT>
4.47

$$$$
>  <RECORD SEQUENCE>
MLSEGRMNS

>  <CENSORING SIGN>
=

>  <QUANTITATIVE RESULT>
5.19

$$$$

* * *

biological target: HLA-C*14:02; assay: IEDB peptide-MHC binding, purified MHC/direct/fluorescence; filed as Kd, often an IC50 or EC50 that approximates it; bounds were set here for any values at or beyond the usual limits of such assays; conditions: source organism: Mycobacterium tuberculosis variant bovis BCG str. Pasteur 1173P2
ENDPOINT: Kd (nM)

>  <RECORD SEQUENCE>
KMNAKAATL

>  <TARGET OR TEST SYSTEM>
HLA-C*14:02

>  <QUANTITATIVE RESULT>
146

$$$$

* * *

target: HLA-B*57:01; assay: IEDB peptide-MHC binding, purified MHC/direct/fluorescence; filed as Kd, often an IC50 or EC50 that approximates it; bounds were set here for any values at or beyond the usual limits of such assays; conditions: source organism: Giardia lamblia ATCC 50803
ENDPOINT: Kd

>  <RECORD SEQUENCE>
DSPATLSAY

>  <RESULT>
≥ 20 µM

$$$$
>  <RECORD SEQUENCE>
MHYGYNRAN

>  <RESULT>
≥ 20 µM

$$$$

* * *

molecular target: HLA-A*03:01; assay: IEDB peptide-MHC binding, purified MHC/competitive/fluorescence; bounds were set here for any values at or beyond the usual limits of such assays; conditions: source organism: Variola virus
ENDPOINT: IC50 (nM)

>  <RECORD SEQUENCE>
IFSAWISHR

>  <ENDPOINT>
IC50

>  <QUANTITATIVE RESULT>
1010

$$$$

* * *

biological target: HLA-B*54:01; test: IEDB peptide-MHC binding, purified MHC/competitive/radioactivity; filed as Kd, often an IC50 or EC50 that approximates it; bounds were set here for any values at or beyond the usual limits of such assays; settings: source organism: Vaccinia virus Copenhagen
ENDPOINT: Kd (µM)

>  <RECORD SEQUENCE>
FILGIIITV

>  <ENDPOINT>
Kd

>  <QUANTITATIVE RESULT>
3.34

$$$$

* * *

biological target: HLA-B*15:42; assay: IEDB peptide-MHC binding, purified MHC/competitive/fluorescence; filed as Kd, often an IC50 or EC50 that approximates it; bounds were set here for any values at or beyond the usual limits of such assays; settings: source organism: Methylibium petroleiphilum PM1
pKd: −log10 of the molar value.

>  <RECORD SEQUENCE>
FQMGGIGPM

>  <pKd>
≤ 5.30

$$$$

* * *

biological target: HLA-A*26:01; assay: IEDB peptide-MHC binding, purified MHC/competitive/fluorescence; filed as Kd, often an IC50 or EC50 that approximates it; bounds were set here for any values at or beyond the usual limits of such assays; conditions: source organism: Rickettsia bellii RML369-C
pKd: −log10 of the molar value.

>  <RECORD SEQUENCE>
AKIALAVYK

>  <pKd>
≤ 4.70

$$$$

* * *

molecular target: HLA-B*08:01; assay: IEDB peptide-MHC binding, purified MHC/competitive/fluorescence; filed as Kd, often an IC50 or EC50 that approximates it; bounds were set here for any values at or beyond the usual limits of such assays; settings: source organism: Mycobacterium tuberculosis variant bovis BCG str. Pasteur 1173P2

>  <RECORD SEQUENCE>
RIRSERPAF

>  <UNIT ABBREV>
nM

>  <Kd>
2250

$$$$

* * *

molecular target: HLA-A*02:01; experiment: IEDB peptide-MHC binding, purified MHC/direct/fluorescence; filed as Kd, often an IC50 or EC50 that approximates it; bounds were set here for any values at or beyond the usual limits of such assays; settings: source organism: Giardia lamblia ATCC 50803
pKd: −log10 of the molar value.
pKd values, listed per item
ENDPOINT: pKd

>  <RECORD SEQUENCE>
DSPATLSAY

>  <TARGET OR TEST SYSTEM>
HLA-A*02:01

>  <RESULT>
≤ 4.70

$$$$
>  <RECORD SEQUENCE>
MHYGYNRAN

>  <TARGET OR TEST SYSTEM>
HLA-A*02:01

>  <RESULT>
≤ 4.70

$$$$
>  <RECORD SEQUENCE>
QHTRRVSVL

>  <TARGET OR TEST SYSTEM>
HLA-A*02:01

>  <RESULT>
5.00

$$$$

* * *

target: HLA-B*35:01; test: IEDB peptide-MHC binding, purified MHC/competitive/radioactivity; filed as Kd, often an IC50 or EC50 that approximates it; bounds were set here for any values at or beyond the usual limits of such assays; conditions: source organism: Dengue virus 2 Jamaica/1409/1983

>  <RECORD SEQUENCE>
VAATMANEM

>  <Kd [nM]>
572

$$$$

* * *

target: HLA-A*02:01; assay: IEDB peptide-MHC binding, purified MHC/direct/fluorescence; filed as Kd, often an IC50 or EC50 that approximates it; bounds were set here for any values at or beyond the usual limits of such assays; details: source organism: Salmonella enterica
ENDPOINT: Kd

>  <RECORD SEQUENCE>
FPASHMATY

>  <ENDPOINT>
Kd

>  <RESULT>
≥ 20 µM

$$$$
>  <RECORD SEQUENCE>
VPQTDAGVT

>  <ENDPOINT>
Kd

>  <RESULT>
≥ 20 µM

$$$$
